Listed below: UI values for each entry.
# ASSAY_INFO: Ulcerogenicity in albino rat assessed as ulcer index at 18 mg/kg, po administrated once daily for 3 successive days and measured after 6 hrs from last dose (reference value: 0)
# Type: toxicity, organism-based
# MEASUREMENT_CONDITIONS: in vivo

{"columns": ["COMPOUND", "UI"],
 "data": [
  ["O=C(N/N=C/c1ccc(F)cc1)C(C(=O)N/N=C/c1ccc(F)cc1)N1C(=O)c2ccccc2S1(=O)=O", 120],
  ["Cc1cc(-c2ccccc2)n(C(=O)C(C(=O)n2nc(C)cc2-c2ccccc2)N2C(=O)c3ccccc3S2(=O)=O)n1", 4],
  ["Nn1c(S)nnc1-c1ccccc1S(=O)(=O)NCc1ccccc1", 360],
  ["COc1ccc2c(c1)c(CC(=O)O)c(C)n2C(=O)c1ccc(Cl)cc1 [INDOMETHACIN]", 480],
  ["CC(C)NS(=O)(=O)c1ccccc1C(=O)N1N=C(c2ccccc2)CC1=O", 4],
  ["Cc1ccc(-c2cc(C(F)(F)F)nn2-c2ccc(S(N)(=O)=O)cc2)cc1 [CELECOXIB]", 3],
  ["Cc1cc(-c2ccccc2)n(C(=O)c2ccccc2S(=O)(=O)NC(C)C)n1", 4]
]}
